# target desc: HDAC1 Y23A (Homo sapiens, UniProt Q13547, Y23A)
# Sequence (Q13547 whole entry Y23A): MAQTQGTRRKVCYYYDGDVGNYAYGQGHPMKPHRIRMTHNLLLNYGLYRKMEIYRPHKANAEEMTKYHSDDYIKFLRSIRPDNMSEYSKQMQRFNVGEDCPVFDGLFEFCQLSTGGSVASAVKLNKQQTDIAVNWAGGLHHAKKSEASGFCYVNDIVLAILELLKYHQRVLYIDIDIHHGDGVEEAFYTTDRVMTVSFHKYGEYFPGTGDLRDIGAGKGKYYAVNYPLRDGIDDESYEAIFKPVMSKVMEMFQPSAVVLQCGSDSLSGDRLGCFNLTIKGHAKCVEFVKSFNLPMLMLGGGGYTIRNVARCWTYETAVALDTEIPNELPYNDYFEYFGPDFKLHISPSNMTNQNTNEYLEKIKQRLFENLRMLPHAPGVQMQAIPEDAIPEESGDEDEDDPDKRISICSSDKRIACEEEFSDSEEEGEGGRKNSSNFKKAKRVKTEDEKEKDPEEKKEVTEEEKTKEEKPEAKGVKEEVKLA
# assay notes: Acetate inhibition assay
# experimental parameters: acetate inhibition; HDAC1 Y23A
property: IC50 (mM)
Give bare numbers, in mM.

Problem: // IC50 lookup, key: CC(=O)[O-].[Na+] [acetate, sodium acetate]
Result: 21

----------
# target desc: HDAC1 Y24A (Homo sapiens, UniProt Q13547, Y24A)
# Sequence (Q13547 whole entry Y24A): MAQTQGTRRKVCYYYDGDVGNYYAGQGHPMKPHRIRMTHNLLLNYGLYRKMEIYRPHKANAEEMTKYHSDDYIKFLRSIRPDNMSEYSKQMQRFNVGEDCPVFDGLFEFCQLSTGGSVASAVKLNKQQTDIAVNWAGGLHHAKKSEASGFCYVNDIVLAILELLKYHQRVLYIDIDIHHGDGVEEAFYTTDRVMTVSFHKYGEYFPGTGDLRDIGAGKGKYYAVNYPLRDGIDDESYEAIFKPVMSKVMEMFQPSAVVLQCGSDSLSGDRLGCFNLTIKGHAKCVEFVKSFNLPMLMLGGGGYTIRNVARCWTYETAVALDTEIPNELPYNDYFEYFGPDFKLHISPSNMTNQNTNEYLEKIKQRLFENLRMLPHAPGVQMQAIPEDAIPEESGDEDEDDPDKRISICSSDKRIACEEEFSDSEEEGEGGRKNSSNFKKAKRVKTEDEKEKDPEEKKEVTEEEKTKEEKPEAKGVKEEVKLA
# assay notes: Acetate inhibition assay
# experimental parameters: acetate inhibition; HDAC1 Y24A
property: pIC50
One number for each entry, as −log10 of the molar value.

Problem: // pIC50 lookup, key: CC(=O)[O-].[Na+] [acetate, sodium acetate]
Result: 1.72
